- test-description: Mouse plasma and brain pharmacokinetics, IP administration
- Assay type: in vivo
- condition-info: male, C57BL/6, mouse, brain and plasma, ip, 10 mg/kg, 10 mg/kg IP; 2 h; read-out: Brain/plasma Ratio, Mean
test-readout: Kp at 2 h
Lab note: record the figure alone, no unit after it.

Tell me Kp at 2 h reported for O=C(O)CC(F)(F)C(=O)N1N=C(c2c(-c3ccc(Cl)cc3)c3ccccc3[nH]c2=O)CC1c1ccc(Cl)cc1 (stereo not shown)
0.018

###

- system: GluN1/GluN2D (Rattus norvegicus, UniProt P35439+Q62645)
- Sequence (Q62645 28-1323, other chains not shown): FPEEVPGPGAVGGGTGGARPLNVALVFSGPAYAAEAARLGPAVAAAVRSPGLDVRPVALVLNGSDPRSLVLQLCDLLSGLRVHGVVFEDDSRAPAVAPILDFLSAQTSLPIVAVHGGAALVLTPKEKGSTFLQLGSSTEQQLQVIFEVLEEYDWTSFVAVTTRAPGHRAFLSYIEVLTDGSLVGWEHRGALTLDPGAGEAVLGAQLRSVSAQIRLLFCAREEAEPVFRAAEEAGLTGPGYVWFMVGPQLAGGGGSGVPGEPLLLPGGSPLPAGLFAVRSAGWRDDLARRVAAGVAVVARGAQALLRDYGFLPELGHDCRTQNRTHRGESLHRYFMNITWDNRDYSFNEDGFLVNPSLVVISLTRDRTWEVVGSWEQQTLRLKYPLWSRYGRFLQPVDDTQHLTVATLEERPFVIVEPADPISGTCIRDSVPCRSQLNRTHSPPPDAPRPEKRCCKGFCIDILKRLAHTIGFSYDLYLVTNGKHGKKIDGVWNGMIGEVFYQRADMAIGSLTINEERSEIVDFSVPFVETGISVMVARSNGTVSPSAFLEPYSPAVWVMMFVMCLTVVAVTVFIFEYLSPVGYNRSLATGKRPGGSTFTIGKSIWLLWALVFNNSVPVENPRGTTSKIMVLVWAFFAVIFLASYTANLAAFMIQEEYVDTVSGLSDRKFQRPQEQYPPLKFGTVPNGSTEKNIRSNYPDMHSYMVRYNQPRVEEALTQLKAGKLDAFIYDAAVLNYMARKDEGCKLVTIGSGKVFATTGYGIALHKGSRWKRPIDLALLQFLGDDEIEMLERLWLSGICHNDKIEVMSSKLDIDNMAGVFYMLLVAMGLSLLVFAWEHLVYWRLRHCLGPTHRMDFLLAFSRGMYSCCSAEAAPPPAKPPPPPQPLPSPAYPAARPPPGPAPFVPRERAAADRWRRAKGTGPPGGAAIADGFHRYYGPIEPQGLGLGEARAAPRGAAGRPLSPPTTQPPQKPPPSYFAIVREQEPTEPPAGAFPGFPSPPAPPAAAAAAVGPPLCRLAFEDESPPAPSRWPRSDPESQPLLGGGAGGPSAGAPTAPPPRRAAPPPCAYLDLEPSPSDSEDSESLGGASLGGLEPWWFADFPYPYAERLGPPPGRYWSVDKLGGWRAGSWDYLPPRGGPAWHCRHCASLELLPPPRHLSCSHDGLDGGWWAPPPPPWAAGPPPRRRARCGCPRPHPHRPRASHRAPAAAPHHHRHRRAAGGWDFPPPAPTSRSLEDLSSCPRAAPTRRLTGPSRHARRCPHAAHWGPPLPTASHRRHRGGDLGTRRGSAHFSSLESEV
- test-description: Whole-cell voltage-clamp recordings, HEK cells, GluN1/GluN2D (agonist dependence)
- Type: cell-based
- condition-info: coapplication with glutamate; from kON and kOFF
test-readout: Kd (nM)
Record the value in nM, omitting the unit from your answer.

Tell me Kd reported for O=C(O)CC(F)(F)C(=O)N1N=C(c2c(-c3ccc(Cl)cc3)c3ccccc3[nH]c2=O)CC1c1ccc(Cl)cc1 (stereo not shown) [2i]
240
